system_tested: T1, MUC1 on MUC1+ human cancer cell lines and tumor tissue (abnormal, e.g. hypoglycosylated, tumor MUC1) (human, UniProt P15941 24-1255)
T1 construct: the MUC1 of each cell line or tissue (number of repeats, glycoform) is not specified; The cell line or tissue is named under assay; also called MUC1 on HPAF, MCF-7, BT-20, SKBR-3, PANC-1, MS+MUC1 cells; MUC1 on colon and pancreatic tumor samples
experimental_details: flow cytometry, PANC-1 cells
Recorded percentage of APC+ stained cells values for a group of binders are listed next.
Write the answer as a number in %, unit excluded.

Answered cases to consult:
>>> quantitative_readout("M22 (antibody, human IgG1, kappa, V domains shown, Human IgG) VH: EVQLVESGGGLVQPGGSLRLSCAASGFTVSSNYMSWVRQAPGKGLEWVSVIYSGGTTYYADSVKGRFTISRHNSKNTLYLQMNSLRAEDTAVYYCARDHDPDYGGYYMDVWGKGTTVTVSS VL: DVVMTQSPLSLPVTLGQPASISCRSSQSLVYSDGNTYLNWFQQRPGQSPRRLIYQVSNRDSGVPDRFSGSGSGTDFTLKIGRVEAEDVGVYFCMQGTHWPWTFGQGTKVEIKR")
0.7
>>> quantitative_readout("M7 (antibody, human IgG1, kappa, V domains shown, Human IgG) VH: EVQLVESGGGLVQPGGSLRLSCAASGFTVSSNYMSWVRQAPGKGLEWVSVIYSGGSTYYADSVKGRFTISRDNSKNTLYLQMNSLRAEDTAVYYCARGSTNTYYYDSSGHPWGQGTMVTVSS VL: DIVMTQSPLSLPATPGEPASISCRSSQSLLHSNGYTYLDWYLQKPGQSPQVLIYLASNRASGVPDRFSGSGSGTNFTLKISRVEAEDVGLFYCMQALQTPQTFGQGTKLEIKR")
0.41
>>> quantitative_readout("M21 (antibody, human IgG1, kappa, V domains shown, Human IgG) VH: EVQLVESGGGLVQPGGSLRLSCAASGFTVSSNYMSWVRQAPGKGLEWVSVIYSGGSTYYADSVKGRFTISRDNSKNTLYLQMNSLRAEDTAVYYCARDQEHYFDGSGYYVDYWGQGTLVTVSS VL: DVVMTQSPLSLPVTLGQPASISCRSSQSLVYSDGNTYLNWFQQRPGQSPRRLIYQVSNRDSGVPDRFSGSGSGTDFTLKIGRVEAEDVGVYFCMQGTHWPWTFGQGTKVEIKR")
0.75

Incoming: State its percentage of APC+ stained cells: M20 (antibody, human IgG1, kappa, V domains shown, Human IgG) VH: EVQLVESGGGLVQPGGSLRLSCAASGFTFSSYWMHWVRQAPGKGLVWVSHINSDGSSTSYADSVKGRFTISRDNAKNTLYLQMNSLRAEDTAVYYCARELADWGQGTLVTVSS VL: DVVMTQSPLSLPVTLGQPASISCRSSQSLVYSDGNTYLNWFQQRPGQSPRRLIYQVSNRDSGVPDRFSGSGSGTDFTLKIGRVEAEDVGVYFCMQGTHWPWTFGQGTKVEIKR
Outgoing: 0.39
